Data provenance: patent US20230365711A1

Molecular target: T1, huNABA-avi-his (hybrid protein N-A1-B3-A2: N and A1 domains of human BGP, B3 domain of human CEA, A2 domain … (human, biotinylated at the avi tag (in vivo, co-transfected biotin ligase)))
T1 construct: also called NABA-avi-his reagent; biotinylated NABA
T1 chain: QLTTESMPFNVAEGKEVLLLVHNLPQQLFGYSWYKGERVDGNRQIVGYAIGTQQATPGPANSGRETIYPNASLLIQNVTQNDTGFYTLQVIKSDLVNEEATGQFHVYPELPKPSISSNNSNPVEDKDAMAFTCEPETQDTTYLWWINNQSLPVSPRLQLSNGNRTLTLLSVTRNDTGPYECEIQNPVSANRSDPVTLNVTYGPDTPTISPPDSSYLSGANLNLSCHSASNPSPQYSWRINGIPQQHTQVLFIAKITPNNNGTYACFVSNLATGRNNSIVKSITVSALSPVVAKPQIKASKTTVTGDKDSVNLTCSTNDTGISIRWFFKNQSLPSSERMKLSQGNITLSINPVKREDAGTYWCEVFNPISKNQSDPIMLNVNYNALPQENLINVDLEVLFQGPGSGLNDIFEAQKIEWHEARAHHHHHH
Assay: Biacore, Fab on immobilized NABA-avi-his; column Monovalent Affinity
property_name: Kd (nM)

1. anti-CEA Fab with unmatured heavy chain CH7A and affinity matured light chain CL1A pAC18 (Fab, V domains shown, Fab format, bacterially expressed; also called CH7A + CL1A pAC18) VH: QVQLVQSGSELKKPGASVKVSCKASGYTFTEFGMNWVRQAPGQGLEWMGWINTKTGEATYVEEFKGRFVFSLDTSVSTAYLQISSLKAEDTAVYYCARWDFYDYVEAMDYWGQGTTVTVSS VL: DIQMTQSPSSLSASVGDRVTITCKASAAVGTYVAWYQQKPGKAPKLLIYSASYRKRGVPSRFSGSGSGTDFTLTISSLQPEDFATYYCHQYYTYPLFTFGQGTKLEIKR
220
2. anti-CEA Fab with affinity matured heavy chain CH7A H4E9 and affinity matured light chain CL1A pAC18 (Fab, V domains shown, Fab format, bacterially expressed; also called CH7A H4E9 and CL1A pAC18) VH: QVQLVQSGSELKKPGASVKVSCKASGYTFTEFGMNWVRQAPGQGLEWMGWINTKTGEATYIEEFKGRFVFSLDTSVSTAYLQISSLKAEDTAVYYCARWDFYDYVEAMDYWGQGTTVTVSS VL: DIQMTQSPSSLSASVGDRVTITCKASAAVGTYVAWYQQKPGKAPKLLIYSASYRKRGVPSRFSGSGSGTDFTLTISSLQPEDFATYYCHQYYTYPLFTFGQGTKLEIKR
96
3. 3A1 (Fab, V domains shown, also called pAC21 (3A1); 3A1 wt/lc) VH: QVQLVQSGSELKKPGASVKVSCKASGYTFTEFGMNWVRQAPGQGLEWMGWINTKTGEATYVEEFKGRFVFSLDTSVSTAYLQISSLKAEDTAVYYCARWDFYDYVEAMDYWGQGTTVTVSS VL: DIQMTQSPSSLSASVGDRVTITCKASANVGNNVAWYQQKPGKAPKLLIYLASNRSGGVPSRFSGSGSGTDFTLTISSLQPEDFATYYCHQYYTYPLFTFGQGTKLEIK
250
